system: SF-268 CNS; assay: NCI tumour cell line growth inhibition, 48 h
Documented log10 TGI across a set of compounds
Each number you see is log10 of TGI, and the unit inside the log is µM.

COc1cc(C(=O)/C=C/c2cccnc2Nc2ccccc2)cc(OC)c1OC: 0.49
COC(=O)C(F)C(Br)C(=O)OC (stereo not drawn): 1.39
CCCc1cc(=O)n2c(C(=O)Nc3ccccc3OC)c(C(=O)Nc3ccc(F)cc3)sc2n1: 1.58
CC(C)c1ccc(Nc2nccc(-c3cnn4ncccc34)n2)cc1: 0.65

q: Name the recorded log10 TGI of the item Cc1ccc(S(=O)(=O)NNC2(NS(=O)(=O)c3ccc(Cl)cc3)C(Cl)=C(Cl)C(=O)c3ccccc32)cc1 (stereo not drawn) in your answer.
a: 1.47

q: Return reported log10 TGI. Input compound: `COc1ccc(C(=O)/C=C/c2cccnc2)cc1OC`
a: 1.43

q: Annotate the compound CCCCN(CCCC)c1ccc(C(=NC(C)CCCN(CC)CC)c2ccc(N(C)C)cc2)cc1 (stereo not drawn) with its measured log10 TGI.
a: 0.31

q: Report log10 TGI, nothing else, for this compound: `C=C1C(=O)O[C@H]2[C@H]3O[C@@H](C[C@@H]12)[C@@]1(C)CC[C@H](O1)C(C)=CCC[C@H]3C`
a: 0.47

q: Provide only the value of recorded log10 TGI for `CCOC(=O)c1nc(Nc2ccc(Cl)cc2)c2ccccc2n1`
a: 1.40
